# experimental system: TPP riboswitch RNA
# protocol description: Isothermal titration calorimetry (ITC) binding to TPP riboswitch RNA
# condition context: Table 3, fragment 5 analogs, pyridine core modifications; ITC; read-out: Kd
quantity: pKd
Formally, pKd is defined as -log10 of the concentration c, with c in mol/L.

Exercise: Please give the measured pKd for this compound: c1cc2[nH]cnc2cn1 [Compound 6]
Key: 3.58

====

# experimental system: TPP riboswitch RNA
# protocol description: Isothermal titration calorimetry (ITC) binding to TPP riboswitch RNA
# condition context: Table 2B, fragment 2 analogs, pendant groups; ITC; read-out: Kd
quantity: pKd
Formally, pKd is defined as -log10 of the concentration c, with c in mol/L.

Exercise: Please give the measured pKd for this molecule: Cc1cccc2nccnc12 [Compound 23]
Key: 3.66
